Values from patent US8318746B2

Readout: melting point

Before answering, review these 2 worked examples.
Molecule	melting point
O=C(O)Cc1ccc(-c2ccc(C(CC3CCOCC3)c3ccc(S(=O)(=O)C4CC4)cc3)[nH]2)nc1 (stereo not drawn) [Example 129]	124 to 127 °C
N#CCc1ccc(-c2ccc(C(CC3CCOCC3)c3ccc(S(=O)(=O)C4CC4)cc3)[nH]2)nc1 (stereo not drawn) [Example 128]	139 to 141 °C

Q. # lookup: melting point of CN(C)C(=O)c1cc(-c2nccs2)[nH]c1C(CC1CCOCC1)c1ccc(S(=O)(=O)C2CC2)cc1 (stereo not drawn) [Example 105]
A. 180 to 182 °C

Q. # lookup: melting point of Cl.O=C1CCN(Cc2cnc(-c3ccc(C(CC4CCOCC4)c4ccc(S(=O)(=O)C5CC5)cc4)[nH]3)s2)CC1 (stereo not drawn)
A. 146 to 148 °C

Q. # lookup: melting point of COC(=O)Nc1cc(-c2nccs2)[nH]c1C(CC1CCOCC1)c1ccc(S(=O)(=O)C2CC2)cc1 (stereo not drawn) [Example 181]
A. 120 to 122 °C

Q. # lookup: melting point of CCOC(=O)c1cc(-c2nccs2)[nH]c1C(CC1CCOCC1)c1ccc(S(=O)(=O)C2CC2)cc1 (stereo not drawn) [Example 103]
A. 178 to 179 °C

====

Readout: melting point

Before answering, review these 2 worked examples.
Compound	Readout	Result
N#Cc1cc(-c2nccs2)[nH]c1C(CC1CCOCC1)c1ccc(S(=O)(=O)C2CC2)cc1 (stereo not drawn)	melting point	114 to 116 °C
CC(C)(O)C(O)c1ccc(-c2ccc(C(CC3CCOCC3)c3ccc(S(C)(=O)=O)c(Cl)c3)[nH]2)nc1 (stereo not drawn)	melting point	138 to 140 °C

--- query ---
Q. # lookup: melting point of CC(O)c1cnc(-c2ccc(C(CC3CCOCC3)c3ccc(S(=O)(=O)C4CC4)cc3)[nH]2)s1 (stereo not drawn) [Example 166]
A. 105 to 106 °C
